The origin of these recorded values is patent US20230263822A1.

Experiment: Hematology assays in cynomolgus monkeys (Example 46)
Format: in vivo
Details: Day 55
Strand notation (5' to 3'): a small letter for the sugar, then the base; units joined by * are phosphorothioate-linked, units joined directly phosphodiester-linked; [ ] holds rarer units or linkages, { } end groups; capitals alone tell only the bases. e = 2'-O-(2-methoxyethyl) (MOE); [5mC] = 5-methylcytosine; d = 2'-deoxy (DNA)
Recorded measurements of RBC count, one per entry
metric_name: RBC count (µL⁻¹)

• ISIS 445522: 5-8-5 or 6-8-6 MOE microwalk gapmer (Table 44) (antisense eG*e[5mC]*eA*e[5mC]*eA*dG*dT*dT*dT*d[5mC]*dT*dG*dG*e[5mC]*eA*eG*eG*e[5mC]) = 5.4e+06
• ISIS 449710: 3-8-3, 4-8-4, 2-10-2, 3-10-3 or 4-10-4 MOE microwalk gapmer (Table 46) (antisense e[5mC]*eA*e[5mC]*dA*dG*dT*dT*dT*d[5mC]*dT*dG*dG*d[5mC]*eA*eG*eG) = 5.6e+06

----------
Tested on: IL-1β, IL-6, IFN-γ, TNF-α, IL-8, MIP-1α, MCP-1, MIP-1β, RANTES
Test: Cytokine and chemokine assays in cynomolgus monkeys (Example 46)
Type: in vivo
Settings: day 55
Strand notation (5' to 3'): a small letter for the sugar, then the base; units joined by * are phosphorothioate-linked, units joined directly phosphodiester-linked; [ ] holds rarer units or linkages, { } end groups; capitals alone tell only the bases. e = 2'-O-(2-methoxyethyl) (MOE); [5mC] = 5-methylcytosine; d = 2'-deoxy (DNA)
metric_name: IL-8 level (pg/mL)

* ISIS 445522: 5-8-5 or 6-8-6 MOE microwalk gapmer (Table 44) (antisense eG*e[5mC]*eA*e[5mC]*eA*dG*dT*dT*dT*d[5mC]*dT*dG*dG*e[5mC]*eA*eG*eG*e[5mC]) | 100
* ISIS 449711: 3-8-3, 4-8-4, 2-10-2, 3-10-3 or 4-10-4 MOE microwalk gapmer (Table 46) (antisense eA*e[5mC]*dA*dG*dT*dT*dT*d[5mC]*dT*dG*dG*d[5mC]*eA*eG) | 110
* ISIS 449710: 3-8-3, 4-8-4, 2-10-2, 3-10-3 or 4-10-4 MOE microwalk gapmer (Table 46) (antisense e[5mC]*eA*e[5mC]*dA*dG*dT*dT*dT*d[5mC]*dT*dG*dG*d[5mC]*eA*eG*eG) | 348
* ISIS 445531: 5-8-5 or 6-8-6 MOE microwalk gapmer (Table 44) (antisense eG*eG*e[5mC]*eA*eT*dT*dG*dG*dT*dG*d[5mC]*dA*d[5mC]*eA*eG*eT*eT*eT) | 293
* ISIS 449707: 3-8-3, 4-8-4, 2-10-2, 3-10-3 or 4-10-4 MOE microwalk gapmer (Table 46) (antisense e[5mC]*eA*e[5mC]*eA*dG*dT*dT*dT*d[5mC]*dT*dG*dG*e[5mC]*eA*eG*eG) | 48

----------
Tested on: Factor 11 mRNA
Experiment: Factor 11 mRNA in cynomolgus monkey liver, day 85 (Example 45)
Type: in vivo
Details: cynomolgus monkeys, s.c. escalating doses 5-25 mg/kg over 12 weeks
Recorded measurements of % inhibition of Factor 11 mRNA in the cynomolgus monkey liver relative to the PBS control, one per entry
metric_name: % inhibition of Factor 11 mRNA in the cynomolgus monkey liver relative to the PBS control (%)

* 416864 (antisense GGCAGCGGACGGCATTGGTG; 5-10-5 gapmer, further chemistry not given here) [compound 416864] | 44
* 416850 (antisense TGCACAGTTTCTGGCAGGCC; 5-10-5 gapmer, further chemistry not given here) [compound 416850] | 84
* 416838 (antisense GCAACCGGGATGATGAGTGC; 5-10-5 gapmer, further chemistry not given here) [compound 416838] | 37
* 416858 (antisense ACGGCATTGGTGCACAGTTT; 5-10-5 gapmer, further chemistry not given here) [compound 416858] | 90
* 417002 (antisense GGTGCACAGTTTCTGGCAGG; 2-13-5 gapmer chemistry, further chemistry not given here) [compound 417002] | 57
